Tested on: 997537-175-T-J1-PDC complex spheroid viability
Assay: Anticancer human tumor 997537-175-T-J1-PDC patient-derived colon adenocarcinoma cell line growth inhibition [GQUAD]
Conditions: second compound 0.0316 µM; first compound 0.1 µM; active compounds read low
From the text: DNA G-quadruplex Stabilizer Agents in Combinations in Complex Spheroids A high-throughput screen of multi-cell type tumor spheroids was designed to identify active combinations of DNA G-quadruplex stabilizer agents and targeted small molecules. […] Compounds. […] If the clinical Cmax for an agent had not been determined, the highest concentration tested was 10 microM. […]
# if measured viability, T/C < 50%: Yes  # else: No

- MOLECULE: "CC(=O)O[C@H]1C(=O)[C@@]2(C)[C@H]([C@H](OC(=O)c3ccccc3)[C@]3(O)C[C@H](OC(=O)[C@H](O)[C@@H](NC(=O)c4ccccc4)c4ccccc4)C(C)=C1C3(C)C)[C@]1(OC(C)=O)CO[C@@H]1C[C@@H]2O + CN(C)c1ccc(Nc2c3ccc(NC(=O)CCN4CCCC4)cc3nc3cc(NC(=O)CCN4CCCC4)ccc23)cc1"
  SYSTEM_TESTED: "997537-175-T-J1-PDC complex spheroid viability"
  CLASS_ASSIGNMENT: "Yes"
- MOLECULE: "Cc1cccc(N(C)C(=O)C2C(O)CCN2c2nc(C)cc(C(F)(F)F)c2C#N)c1 (stereo not given) + Cc1cnc(CNC(=O)c2c(=O)c3ccc(N4CCCN(C)CC4)nc3n3c2sc2ccccc23)cn1"
  SYSTEM_TESTED: "997537-175-T-J1-PDC complex spheroid viability"
  CLASS_ASSIGNMENT: "No"
- MOLECULE: "O=C(NO)c1cnc(N2CCN(S(=O)(=O)c3ccc4ccccc4c3)CC2)nc1 + Cc1[nH]c2ccc(F)cc2c1-c1nc2c3cccnc3c3ncccc3c2[nH]1"
  SYSTEM_TESTED: "997537-175-T-J1-PDC complex spheroid viability"
  CLASS_ASSIGNMENT: "Yes"
- MOLECULE: "CC1COCCN1c1cc(C2(S(C)(=N)=O)CC2)nc(-c2ccnc3[nH]ccc23)n1 (stereo not given) + CN(C)c1ccc(Nc2c3ccc(NC(=O)CCN4CCCC4)cc3nc3cc(NC(=O)CCN4CCCC4)ccc23)cc1"
  SYSTEM_TESTED: "997537-175-T-J1-PDC complex spheroid viability"
  CLASS_ASSIGNMENT: "No"
- MOLECULE: "O=c1[nH]cc(F)c(=O)[nH]1 + CN(C)c1ccc(Nc2c3ccc(NC(=O)CCN4CCCC4)cc3nc3cc(NC(=O)CCN4CCCC4)ccc23)cc1"
  SYSTEM_TESTED: "997537-175-T-J1-PDC complex spheroid viability"
  CLASS_ASSIGNMENT: "No"

====

Tested on: 997537-175-T-J1-PDC complex spheroid viability
Experiment: Anticancer human tumor 997537-175-T-J1-PDC cell line growth inhibition [GQUAD];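 further: spheroids exposed to the agents for 7 days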
Details: second compound 0.1 µM; first compound 0.0999 µM; active compounds read low
# if measured viability, T/C < 80%: Fulfilled  # else: Not fulfilled

- COMPOUND: "CC[C@@]1(O)C(=O)OCc2c1cc1n(c2=O)Cc2cc3c(CN(C)C)c(O)ccc3nc2-1 + CN(C)c1ccc(Nc2c3ccc(NC(=O)CCN4CCCC4)cc3nc3cc(NC(=O)CCN4CCCC4)ccc23)cc1"
  CLASS_ASSIGNMENT: "Fulfilled"
- COMPOUND: "CCc1c2c(nc3ccc(O)cc13)-c1cc3c(c(=O)n1C2)COC(=O)[C@]3(O)CC + Cc1[nH]c2ccc(F)cc2c1-c1nc2c3cccnc3c3ncccc3c2[nH]1"
  CLASS_ASSIGNMENT: "Fulfilled"
- COMPOUND: "Cn1ncnc1[C@H]1c2n[nH]c(=O)c3cc(F)cc(c23)N[C@@H]1c1ccc(F)cc1 + CN(C)c1ccc(Nc2c3ccc(NC(=O)CCN4CCCC4)cc3nc3cc(NC(=O)CCN4CCCC4)ccc23)cc1"
  CLASS_ASSIGNMENT: "Not fulfilled"
- COMPOUND: "CC[C@@]1(O)C(=O)OCc2c1cc1n(c2=O)Cc2cc3c(CN(C)C)c(O)ccc3nc2-1 + Cc1cnc(CNC(=O)c2c(=O)c3ccc(N4CCCN(C)CC4)nc3n3c2sc2ccccc23)cn1"
  CLASS_ASSIGNMENT: "Not fulfilled"
- COMPOUND: "Cn1ncnc1[C@H]1c2n[nH]c(=O)c3cc(F)cc(c23)N[C@@H]1c1ccc(F)cc1 + Cc1[nH]c2ccc(F)cc2c1-c1nc2c3cccnc3c3ncccc3c2[nH]1"
  CLASS_ASSIGNMENT: "Not fulfilled"
- COMPOUND: "Cn1ncnc1[C@H]1c2n[nH]c(=O)c3cc(F)cc(c23)N[C@@H]1c1ccc(F)cc1 + Cc1cnc(CNC(=O)c2c(=O)c3ccc(N4CCCN(C)CC4)nc3n3c2sc2ccccc23)cn1"
  CLASS_ASSIGNMENT: "Not fulfilled"
- COMPOUND: "CCc1c2c(nc3ccc(O)cc13)-c1cc3c(c(=O)n1C2)COC(=O)[C@]3(O)CC + CN(C)c1ccc(Nc2c3ccc(NC(=O)CCN4CCCC4)cc3nc3cc(NC(=O)CCN4CCCC4)ccc23)cc1"
  CLASS_ASSIGNMENT: "Fulfilled"
- COMPOUND: "CCc1c2c(nc3ccc(O)cc13)-c1cc3c(c(=O)n1C2)COC(=O)[C@]3(O)CC + Cc1cnc(CNC(=O)c2c(=O)c3ccc(N4CCCN(C)CC4)nc3n3c2sc2ccccc23)cn1"
  CLASS_ASSIGNMENT: "Fulfilled"
- COMPOUND: "CC[C@@]1(O)C(=O)OCc2c1cc1n(c2=O)Cc2cc3c(CN(C)C)c(O)ccc3nc2-1 + Cc1[nH]c2ccc(F)cc2c1-c1nc2c3cccnc3c3ncccc3c2[nH]1"
  CLASS_ASSIGNMENT: "Fulfilled"
- COMPOUND: "Cc1[nH]c2ccccc2c1CCNCc1ccc(/C=C/C(=O)NO)cc1 + Cc1[nH]c2ccc(F)cc2c1-c1nc2c3cccnc3c3ncccc3c2[nH]1"
  CLASS_ASSIGNMENT: "Not fulfilled"
